# Tested on: castrated (CX) immature male rats
# protocol_notes: Systemic androgenic (agonistic) activity in orchidectomized (CX) immature male rats
# Assay type: in vivo, rat
# protocol_conditions: 0.1 mg/rat/po, 7 days, seminal vesicles weight
Below: a set of entries, each annotated with reported CX Agonistic activity % Stimulation SV.

Example entries and their recorded answers appear below.
Cc1c(N2C(=O)N(CCCOc3ccc(-c4cc[n+]([O-])cc4)cc3F)C(C)(C)C2=O)ccc(C#N)c1Cl ... 29 ± 2 (n = 2) %
Cc1c(N2C(=O)N(CCCOc3ccc(-c4ccncc4F)cc3)C(C)(C)C2=O)ccc(C#N)c1Cl ... 24 ± 3 (n = 2) %
Cc1c(N2C(=O)N(CCCOc3ccc(-c4ccncc4)cc3C(F)(F)F)C(C)(C)C2=O)ccc(C#N)c1Cl ... 24 ± 2 (n = 2) %

Which CX Agonistic activity % Stimulation SV is listed for Cc1c(N2C(=O)NC(C)(C)C2=O)ccc(C#N)c1Cl ? 38 ± 5 (n = 2) %

* * *

Below: a set of entries, each annotated with reported Human Androgen Receptor Binding RBA (%) R1881 = 100.
# tgt: Human Androgen Receptor (Homo sapiens (Human))
# protocol_notes: Androgen receptor assay: [3H]R1881 displacement, cytosol of HEK-293 cells transfected with hAR (hydroxylapatite assay)
# Type: binding
# protocol_conditions: relative binding affinity, R1881 = 100; transfected cells

Example entries and their recorded answers appear below.
CC1(C)C(=O)N(c2ccc(C#N)c(C(F)(F)F)c2)C(=S)N1CCCOc1ccc(-c2ccncc2)c(C(F)(F)F)c1 ... 59 ± 25 (n = 2) %
CC(C)(O)C(=O)Nc1ccc([N+](=O)[O-])c(C(F)(F)F)c1 [OH-FLU, hydroxyflutamide, reference compound] ... 0.21 ± 0.09 (n = 3) %
CC1(C)C(=O)N(c2ccc(C#N)c(F)c2)C(=O)N1CCCOc1ccc(-c2cc[n+]([O-])cc2)cc1 ... ~0.1%

Could you share what Human Androgen Receptor Binding RBA (%) R1881 = 100 was measured for CC1(C)C(=O)N(c2ccc(C#N)c(F)c2)C(=S)N1CCCOc1ccc(-c2ccncc2)c(F)c1 , tested on Human Androgen Receptor (Homo sapiens (Human))? 43 ± 9 (n = 2) %

Could you share what Human Androgen Receptor Binding RBA (%) R1881 = 100 was measured for CC1(C)C(=O)N(c2ccc(C#N)c(C(F)(F)F)c2)C(=S)N1CCCOc1ccc(-c2ccncc2)c(Cl)c1 , tested on Human Androgen Receptor (Homo sapiens (Human))? 1880 ± 1040 (n = 2) %

* * *

Below: a set of entries, each annotated with reported Human Androgen Receptor Binding RBA (%) R1881 = 100.
# tgt: Human Androgen Receptor (Homo sapiens (Human), UniProt P10275)
# Sequence (P10275 whole entry): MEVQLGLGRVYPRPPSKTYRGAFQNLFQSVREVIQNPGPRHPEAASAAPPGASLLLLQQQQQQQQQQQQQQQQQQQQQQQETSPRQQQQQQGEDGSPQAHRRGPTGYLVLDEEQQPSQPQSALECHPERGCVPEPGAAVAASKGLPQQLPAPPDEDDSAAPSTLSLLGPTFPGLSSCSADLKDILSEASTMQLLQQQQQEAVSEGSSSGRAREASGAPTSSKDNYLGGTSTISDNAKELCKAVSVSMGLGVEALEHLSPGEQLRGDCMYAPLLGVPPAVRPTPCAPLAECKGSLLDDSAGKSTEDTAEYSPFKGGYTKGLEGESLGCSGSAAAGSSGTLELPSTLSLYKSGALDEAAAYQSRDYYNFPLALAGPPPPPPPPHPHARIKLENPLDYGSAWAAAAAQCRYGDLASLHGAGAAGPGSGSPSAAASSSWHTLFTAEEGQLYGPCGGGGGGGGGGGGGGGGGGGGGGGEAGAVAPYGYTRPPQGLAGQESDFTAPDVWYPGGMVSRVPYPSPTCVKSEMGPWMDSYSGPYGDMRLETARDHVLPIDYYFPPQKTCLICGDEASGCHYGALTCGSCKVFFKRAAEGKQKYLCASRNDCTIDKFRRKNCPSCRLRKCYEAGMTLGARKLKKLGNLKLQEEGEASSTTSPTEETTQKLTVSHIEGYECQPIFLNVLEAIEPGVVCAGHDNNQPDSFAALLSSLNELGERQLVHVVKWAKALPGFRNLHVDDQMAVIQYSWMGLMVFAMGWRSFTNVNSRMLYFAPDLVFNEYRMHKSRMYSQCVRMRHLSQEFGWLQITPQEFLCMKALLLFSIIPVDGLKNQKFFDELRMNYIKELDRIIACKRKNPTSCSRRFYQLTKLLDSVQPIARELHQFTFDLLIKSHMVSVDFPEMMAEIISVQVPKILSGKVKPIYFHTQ
# protocol_notes: Androgen receptor assay: [3H]R1881 displacement, cytosol of HEK-293 cells transfected with hAR (hydroxylapatite assay)
# Assay type: binding
# protocol_conditions: relative binding affinity, R1881 = 100; […]

CC1(C)C(=O)N(c2ccc(C#N)c(Cl)c2)C(=S)N1CCCOc1ccc(-c2ccncc2)cc1 ... 762 ± 396 (n = 2) %
Cc1ccc(-c2ccc(OCCCN3C(=S)N(c4ccc(C#N)c(C(F)(F)F)c4)C(=O)C3(C)C)cc2)cn1 ... 944 ± 265 (n = 2) %

Next item in the queue.
Which Human Androgen Receptor Binding RBA (%) R1881 = 100 is listed for CC1(C)C(=O)N(c2ccc(C#N)c(C(F)(F)F)c2)C(=O)N1CCCOc1ccc(-c2ccncc2)nc1 ? 1.0 ± 0.0 (n = 2) %

* * *

# tgt: UniProt:P10275
# protocol_notes: Androgen receptor assay: [3H]R1881 displacement, cytosol of HEK-293 cells transfected with hAR (hydroxylapatite assay)
# Type: binding
# protocol_conditions: relative binding affinity, R1881 = 100; […]
measurement_kind: Human Androgen Receptor Binding RBA (%) R1881 = 100

Example entries and their recorded answers appear below.
Cc1c(N2C(=O)C(C)(C)N(CCCOc3ccc(-c4cccnc4)cc3)C2=S)ccc(C#N)c1Cl ... 477 ± 16 (n = 2) %
CC1(C)C(=O)N(c2ccc(C#N)c(Cl)c2)C(=O)N1CCCOc1ccc(-c2cc[n+]([O-])cc2)cc1 ... 2.2 ± 0.4 (n = 6) %
CC1(C)C(=O)N(c2ccc(C#N)c(C(F)(F)F)c2)C(=O)N1CCCOc1ccc(-c2cc[n+]([O-])cc2)cc1 ... 1.5 ± 0.3 (n = 2) %

Which Human Androgen Receptor Binding RBA (%) R1881 = 100 is listed for CC1(C)C(=O)N(c2ccc(C#N)c(C(F)(F)F)c2)C(=S)N1CCCOc1ccc(-c2cccnc2)cc1 ? 1090 ± 500 (n = 2) %

* * *

# System: castrated (CX) immature male rats
# protocol_notes: Systemic androgenic (agonistic) activity in orchidectomized (CX) immature male rats
# Type: in vivo, rat
# protocol_conditions: 0.1 mg/rat/po, 7 days, seminal vesicles weight
measurement_kind: CX Agonistic activity % Stimulation SV

Example entries and their recorded answers appear below.
Cc1c(N2C(=O)N(CCCOc3ccc(-c4cc[n+]([O-])cc4)c(Cl)c3)C(C)(C)C2=O)ccc(C#N)c1Cl [EM-9291] ... 21 ± 7 (n = 2) %
Cc1c(N2C(=O)N(CCCOc3ccc(-c4ccncc4)c(C(F)(F)F)c3)C(C)(C)C2=O)ccc(C#N)c1Cl [EM-9333] ... 19 ± 5 (n = 2) %

Could you share what CX Agonistic activity % Stimulation SV was measured for Cc1c(N2C(=O)N(CCCOc3ccc(-c4cc[n+]([O-])cc4F)cc3)C(C)(C)C2=O)ccc(C#N)c1Cl [EM-9318] , tested on castrated (CX) immature male rats? 14 ± 9 (n = 2) %

* * *

# System: castrated (CX) immature male rats
# protocol_notes: Systemic androgenic (agonistic) activity in orchidectomized (CX) immature male rats
# Format: in vivo, rat
# protocol_conditions: 0.1 mg/rat/po, 7 days, seminal vesicles weight
Below: a set of entries, each annotated with reported CX Agonistic activity % Stimulation SV.

Example entries and their recorded answers appear below.
Cc1c(N2C(=O)N(CCCOc3ccc(-c4cc[n+]([O-])cc4)cc3C(F)(F)F)C(C)(C)C2=O)ccc(C#N)c1Cl ... 17 ± 10 (n = 2) %
Cc1c(N2C(=O)N(CCCOc3ccc(-c4cc[n+]([O-])cc4)cc3Cl)C(C)(C)C2=O)ccc(C#N)c1Cl ... 29 ± 5 (n = 2) %
Cc1c(N2C(=O)N(CCCOc3ccc4cccnc4c3)C(C)(C)C2=O)ccc(C#N)c1Cl ... 10 ± 10 (n = 2) %

Could you share what CX Agonistic activity % Stimulation SV was measured for Cc1c(N2C(=O)N(CCCOc3ccc(-c4ccncc4Cl)cc3)C(C)(C)C2=O)ccc(C#N)c1Cl , tested on castrated (CX) immature male rats? 18 ± 2 (n = 2) %

Could you share what CX Agonistic activity % Stimulation SV was measured for Cc1c(N2C(=O)N(CCCOc3ccc(-c4cc[n+]([O-])cc4Cl)cc3)C(C)(C)C2=O)ccc(C#N)c1Cl , tested on castrated (CX) immature male rats? 14 ± 9 (n = 2) %

* * *

Below: a set of entries, each annotated with reported Human Androgen Receptor Binding RBA (%) R1881 = 100.
# tgt: Human Androgen Receptor (Homo sapiens (Human), UniProt P10275)
# protocol_notes: Androgen receptor assay: [3H]R1881 displacement, cytosol of HEK-293 cells transfected with hAR (hydroxylapatite assay)
# Assay type: binding
# protocol_conditions: relative binding affinity, R1881 = 100; […]

CC1(C)C(=O)N(c2ccc(C#N)c(C(F)(F)F)c2)C(=S)N1CCCOc1cccc(-c2ccncc2)c1 [EM-8871] ... 558 ± 102 (n = 2) %
CC1(C)C(=O)N(c2ccc(C#N)c(C(F)(F)F)c2)C(=O)N1CCCOc1ccc(-c2ccncc2)cn1 [EM-9114] ... 7.9 ± 4.1 (n = 3) %

Next item in the queue.
Which Human Androgen Receptor Binding RBA (%) R1881 = 100 is listed for CC1(C)C(=O)N(c2ccc(C#N)c(Cl)c2)C(=O)N1CCCOc1ccc(-c2cc[n+]([O-])cc2)c(F)c1 [EM-9117] ? 2.5 ± 0.5 (n = 5) %

* * *

Below: a set of entries, each annotated with reported Human Androgen Receptor Binding RBA (%) R1881 = 100.
# tgt: Human Androgen Receptor (Homo sapiens (Human))
# protocol_notes: Androgen receptor assay: [3H]R1881 displacement, cytosol of HEK-293 cells transfected with hAR (hydroxylapatite assay)
# Type: binding
# protocol_conditions: relative binding affinity, R1881 = 100; […]

Cc1c(N2C(=O)C(C)(C)N(CCCOc3ccc(-c4ccncc4)cc3)C2=S)ccc(C#N)c1C(F)(F)F ... 525 ± 362 (n = 3) %

Which Human Androgen Receptor Binding RBA (%) R1881 = 100 is listed for CC1(C)C(=O)N(c2ccc(C#N)c(C(F)(F)F)c2)C(=S)N1CCCOc1ccc(-c2ccncc2)cc1 ? 1200 ± 330 (n = 2) %

Which Human Androgen Receptor Binding RBA (%) R1881 = 100 is listed for CC1(C)C(=O)N(c2ccc(C#N)c(C(F)(F)F)c2)C(=S)N1CCCOc1ccc(-c2ccncc2)cn1 ? 317 ± 122 (n = 2) %

Which Human Androgen Receptor Binding RBA (%) R1881 = 100 is listed for CC1(C)C(=O)N(c2ccc(C#N)c(Cl)c2)C(=O)N1CCCOc1ccc(-c2cc[n+]([O-])cc2)cc1Cl.Cl ? 24 ± 8 (n = 2) %
